Biological target: zfα5(huW1-4)β1-1 blade swap integrin (human | zebrafish) (UniProt P08648)
Test: ELISA
Bridge positions count the residues as written; N and C are the ends. Ends that are not written are not given here.
Reported metric: Ki (nM)
Quick reminder: number only, in nM, skip the unit.

For the binder shown here, GACRRETAWACGA (disulfide 3-11 (inferred)) [cyclic peptide …] , give the reported Ki.
31
